B1: EEHEE_rd4_0763 (parent)
chain: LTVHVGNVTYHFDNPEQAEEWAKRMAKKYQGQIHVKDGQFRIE

Variants of: B1
Experiment: folding stability dG (cDNA display proteolysis); higher = more stable
Conditions: PBS, room temperature
# folding stability dG values compiled below
Expressed in kcal/mol, but write only the number.

// worked examples, folding stability dG included
- mutation_list: "L1H"
  unit_annotation: "kcal/mol"
  folding stability dG: 2.13
- mutation_list: "E20M"
  unit_annotation: "kcal/mol"
  folding stability dG: 1.7
- mutation_list: "K36Y"
  unit_annotation: "kcal/mol"
  folding stability dG: 1.7
- mutation_list: "N7G"
  unit_annotation: "kcal/mol"
  folding stability dG: 1.71
- mutation_list: "V3G"
  unit_annotation: "kcal/mol"
  folding stability dG: 0.606

Given the entry D13F , report its measured folding stability dG.
1.36

Given the entry K23M , report its measured folding stability dG.
1.61

Given the entry R41G , report its measured folding stability dG.
1.3

Given the entry E43I , report its measured folding stability dG.
2

Given the entry Q32H , report its measured folding stability dG.
1.81

Given the entry A18Q , report its measured folding stability dG.
0.969

Given the entry L1A , report its measured folding stability dG.
2.1
